melting point of 60 °C or higher: rule met. Under 60 °C: rule not met.

Use these answered entries as a reference point.
COc1ccc(C#N)c(OC)c1OC; rule not met
Cc1ccc2c(c1Cl)C(=O)c1ccccc1C2=O; rule met
CCC(=O)c1ccc(C(F)(F)F)c(F)c1; rule not met
Cc1ccc(C)c(C)n1; rule not met
CCc1ccc(CCl)cc1; rule not met

Record CC1(C)[C@H](C(=O)OC(C#N)c2cccc(Oc3ccccc3)c2)[C@@H]1C=C(Cl)Cl (stereo partly specified) ; criterion: melting point no lower than 60 °C. Met? rule met

Record CCC(O)C(C)(C)C (stereo unspecified) ; criterion: melting point no lower than 60 °C. Met? rule not met

----------
observation-type: melting point

NC(=S)C(c1ccccc1)c1ccccc1; 143 to 146 °C

What does the record list as melting point for ClCc1csc2ccc(Br)cc12 ? 106 to 108 °C

What does the record list as melting point for Cc1ccc(C(=O)C(=O)c2ccc(Cl)cc2)cc1 ? 123 to 124 °C

What does the record list as melting point for N#Cc1ccnc(Cl)c1 ? 71 to 72 °C

What does the record list as melting point for NC(=O)NN=Cc1cccc2c(Br)cccc12 ? 257 to 259 °C

What does the record list as melting point for CC1(c2ccccc2)CC(C(=NOC(=O)Cc2ccccc2)c2cc3ccccc3o2)C1 (stereo unspecified) ? 144 to 145 °C

----------
observation-type: melting point

N#CC1=C(N)Oc2ccc(Cl)cc2C1C(C#N)C#N (centres undefined); 155 to 156 °C
CC1(C)OC2OC(CO)C3OC(C)(C)OC3C2O1 (centres undefined); 120 to 122 °C
CN(C)CCOc1ccc(N)cc1; 55 to 57 °C
N#CCc1ccc(OS(=O)(=O)c2ccc(Cl)cc2)cc1; 95 to 97 °C
Cc1noc(-c2ccccc2CBr)n1; 64 to 67 °C
O=C(Oc1c(Cl)cc(Cl)cc1Cl)C(=O)Oc1c(Cl)cc(Cl)cc1Cl; 188 to 192 °C
Nc1ncnc2c1ncn2CC(O)CO (centres undefined); 202 to 203 °C
CC(C)(C)[Si](C)(C)N1C(=O)C[C@@H]1C(=O)O; 137 to 141 °C

Now let's try a different one.
What does the record list as melting point for O=Cc1cccc(-n2cccn2)c1 ? 38 to 39 °C

----------
Known melting point of a selection of compounds

What does the record list as melting point for COc1ccc(C=C2C(=O)NC(=N)N2C)cc1OC ? 243 to 245 °C

What does the record list as melting point for COC(=O)C(C#N)=C(SC)SC ? 85 to 87 °C

What does the record list as melting point for Clc1ccc(C2C3CCc4ccccc4C3=NN2c2ccc(Cl)cc2)cc1 (stereo unspecified) ? 186 to 188 °C

----------
Known melting point of a selection of molecules

// worked examples, melting point included
COC(=O)c1cccc2cc[nH]c12; 46 to 47 °C
Cn1ccc(C#N)n1; 41.5 to 45 °C
O=[N+]([O-])c1cccnc1N1CCN(CCO)CC1; 82 to 83 °C
O=C(O)c1ccc(-c2cnco2)cc1; 300 to 301 °C

What does the record list as melting point for CC(=O)c1ccc(N=C=S)cc1 ? 82 to 85 °C

What does the record list as melting point for O=S(=O)(Cl)c1c(Cl)nc2sccn12 ? 137 to 139 °C

What does the record list as melting point for CN(C)c1ccc(P(=O)(c2ccc(N(C)C)cc2)c2ccc(N(C)C)cc2)cc1 ? 275 to 280 °C

----------
observation-type: melting point

CC(C)(C)OC(=O)N[C@@H](Cc1ccccc1)C(=O)O; 85 to 88 °C
COc1ccc(C2Nn3c(nnc3-c3ccccc3OC)S2)cc1 (centres undefined); 203 to 204 °C
O=Cc1ccc(-n2cncn2)cc1; 147 to 149 °C

Now let's try a different one.
What does the record list as melting point for CC(=O)OCc1ccc(C=O)o1 ? 52 to 56 °C

----------
Known melting point of a selection of compounds

// worked examples, melting point included
Brc1cccc(-n2cccc2)c1; 63 to 64 °C
CCCCCCCCCCOc1ccc(/N=N/c2ccc(CCCC)cc2)cc1; 55.5 to 74 °C
CC(=O)Nc1ccc(Br)c(C(=O)O)c1; 186 to 188 °C

What does the record list as melting point for NC(=NO)c1cc(C(F)(F)F)cc(C(F)(F)F)c1 ? 131 to 133 °C

What does the record list as melting point for Cn1c(=O)n(-c2cccc(Cl)c2)c(=O)c2c3c(sc21)CCCC3 ? 240 to 241 °C

What does the record list as melting point for O=C=NS(=O)(=O)c1ccc(F)cc1 ? 32 to 39 °C

----------
Known melting point of a selection of compounds
Quick reminder: number only, in °C, skip the unit.

What does the record list as melting point for Fc1cc(Br)ccc1Br ? 34

What does the record list as melting point for Clc1ccc(-c2c(Cl)cc(Cl)cc2Cl)cc1 ? 65

What does the record list as melting point for CCOC(=O)C1=C(C)NC(=O)NC1c1ccc2c(c1)OCO2 (stereo not drawn) ? 189

What does the record list as melting point for CC(=O)CC(C)(C)O ? -42.8

What does the record list as melting point for O=C(NC(Cc1ccccc1)c1ccccc1)c1cccnc1 (stereo not drawn) ? 159

----------
observation-type: melting point

N=C1N=C2CCC(c3ccccc3)=NN2CN1; 240 to 242 °C
O=S1(=O)Cc2ccccc2C1; 151 to 152 °C

What does the record list as melting point for CCCCCOc1ccc(/N=N/c2ccc(CCCC)cc2)cc1 ? 40.5 to 43 °C

----------
observation-type: melting point (°C)
Quick reminder: number only, in °C, skip the unit.

What does the record list as melting point for O=S(O)c1ccc(Cl)cc1 ? 99

What does the record list as melting point for NC(=O)COc1ccccc1 ? 102

What does the record list as melting point for COC(=O)C=Cc1cccs1 ? 49

What does the record list as melting point for CC(=O)Nc1ccc(S(=O)(=O)Nc2ccc([N+](=O)[O-])cc2)cc1 ? 240

What does the record list as melting point for O=C1CCCCC1C1=CCCCC1 (stereo not drawn) ? -78

What does the record list as melting point for CC(C)c1cc(C(C)C)c(-c2ccccc2P(C2CCCCC2)C2CCCCC2)c(C(C)C)c1 ? 185

What does the record list as melting point for Cc1cc(N=Nc2ccccc2)c(C(C)C)cc1[N+]([O-])=Nc1ccccc1 ? 118

What does the record list as melting point for CC(=O)Nc1ccccc1C=Cc1cc(C=Cc2ccccc2NC(C)=O)c([N+](=O)[O-])cc1[N+](=O)[O-] ? 270

What does the record list as melting point for CCCCCCCCCCCI ? 2

----------
Lab note - cut at 200 °C for melting point: TRUE if strictly below, FALSE if not.

Use these answered entries as a reference point.
CC(C)(C)OC(=O)N1CC(O)C1; TRUE
C=C(C(=O)O)C1CCC2C(=CCC3C(C)(C)C(O)CCC23C)C1 (stereo not drawn); FALSE
COc1ccc(-c2ccc(S(=O)(=O)NC(CCSC)C(=O)O)cc2)cc1 (stereo not drawn); TRUE
O=Cc1cccc2cc[nH]c12; TRUE
CC(C)CCCC(C(=O)O)C1=CCC2(C)C(CCC3C4CCC(O)C4(C)CCC32)C1 (stereo not drawn); TRUE

Is the reported melting point for O=C(O)C(Cl)(Cl)CCl strictly below 200 °C? TRUE

Is the reported melting point for O=C1CCCCC1 strictly below 200 °C? TRUE

Is the reported melting point for COc1ccc(C(=O)c2ccccc2O)c(O)c1 strictly below 200 °C? TRUE

Is the reported melting point for C#Cc1ccc(F)cc1 strictly below 200 °C? TRUE

Is the reported melting point for Nc1cc(CCNC(=O)c2ccccc2)ccc1CCNC(=O)c1ccccc1 strictly below 200 °C? FALSE

Is the reported melting point for COC(=O)CCCCCCCCCCCC(=O)OC strictly below 200 °C? TRUE

----------
observation-type: melting point

// worked examples, melting point included
O=C(Nc1ccccc1)C1CCCC/C1=C\Cc1ccccc1 (configuration not stated); 99 to 100 °C
O=C(C=Cc1ccc2c(c1)OCO2)c1ccc(O)cc1; 209 to 210 °C
Brc1ccc2c(c1)CCO2; 49 to 50 °C
N#CCCn1cccc(C(F)(F)F)c1=O; 88 to 90 °C
CC(=O)N[C@@H](Cc1ccccc1)C(=O)N[C@@H](Cc1cc(I)c(O)c(I)c1)C(=O)O; 219 to 221 °C

What does the record list as melting point for Nc1cccnc1O ? 118 to 130 °C

What does the record list as melting point for CC(C)Nc1ccc(C(F)(F)F)cc1[N+](=O)[O-] ? 103 to 105 °C

----------
Known melting point of a selection of molecules

O=C(Cl)c1sc(Br)c2c1OCCO2; 154 to 155 °C

What does the record list as melting point for Cc1c(COC(=O)C2C(C=C(Cl)C(F)(F)F)C2(C)C)cccc1-c1ccccc1 (stereo unspecified) ? 79.6 °C

What does the record list as melting point for c1ccc(-c2nnc3n2CN(c2ccccn2)CS3)cc1 ? 223 to 224 °C

What does the record list as melting point for Cc1nc(-c2ccc(-c3ccccc3)cc2)cs1 ? 113 to 118 °C

What does the record list as melting point for NC(CC(=O)O)C1CCCCC1 (stereo unspecified) ? 234 to 235 °C

What does the record list as melting point for Cc1ccc2oc(C(=O)O)cc(=O)c2c1 ? 267 to 270 °C
